tested on: MALME-3M melanoma; assay: NCI tumour cell line growth inhibition, 48 h
reported metric: log10(TGI) (log10 of the value in µM)

compound: Cc1nc2sc(C(=O)Nc3ccccc3)c(N)c2cc1C(=O)/C=C/c1ccccc1
experimental target: MALME-3M melanoma
log10(TGI): 0.89
//
compound: Cc1cccc(C(C)C)c1NC(=O)C(=O)CC(=O)c1c(C)n([O-])c2ccccc2[n+]1=O
experimental target: MALME-3M melanoma
log10(TGI): 1.64
//
compound: Fc1ccc2[nH]c3c(NCCCN4CCOCC4)ncnc3c2c1
experimental target: MALME-3M melanoma
log10(TGI): 1.95
//
compound: Brc1ccc2[nH]cc(-c3nc(-c4c[nH]c5ccccc45)cs3)c2c1
experimental target: MALME-3M melanoma
log10(TGI): 0.97
//
compound: O=C1C(Cl)=C(Nc2cccc(O)c2)C(=O)N1c1cc(Cl)c(Cl)cc1Cl
experimental target: MALME-3M melanoma
log10(TGI): 1.37
//
compound: CC1OC2CC(=O)OC2C2=C1C(=O)c1c(O)c3c(c(O)c1C2=O)C1CC(O)C3(O)C(C)O1 (stereo not drawn)
experimental target: MALME-3M melanoma
log10(TGI): -0.41
//
compound: C[C@H]1[C@H](C)CC[C@]2(C(=O)O)CC[C@]3(C)C(=CC[C@@H]4[C@@]5(C)C/C(=C/c6cccnc6)[C@H](O)C(C)(C)[C@@H]5CC[C@]43C)[C@H]12
experimental target: MALME-3M melanoma
log10(TGI): 1.71
//
compound: COc1ccc(-c2cc(-c3cc(OC)c(OC)c(OC)c3)cc(-c3cc4ccccc4oc3=O)n2)cc1
experimental target: MALME-3M melanoma
log10(TGI): 1.38
//
compound: C[C@@H]1CN(CC(=O)N2CC(C)(C)c3nc(CO)c(Cc4ccc(F)cc4)cc32)[C@@H](CN2CCOC[C@H]2C)CN1
experimental target: MALME-3M melanoma
log10(TGI): 1.49
